# Tested on: NCI-H226
# measurement notes: NCI tumour cell line growth inhibition, 48 h
Activity calls are given as the source filed them. No stated cut-off is given here; in the data, active = GI50 up to about 1.1 µM and inactive = higher.
Outcomes: TRUE (active), FALSE (inactive)

>>> classification("O=C1NC(=O)C(c2c[nH]c3cc(Br)ccc23)=C1c1cn(C(c2ccccc2)(c2ccccc2)c2ccccc2)cn1")
"FALSE"
>>> classification("CCOC(=O)/C(=C\\c1ccc[nH]1)C(=O)c1ccccc1")
"FALSE"
>>> classification("COC(=O)c1ccccc1CC1Cc2cccc(C)c2C1=O (stereo not given)")
"FALSE"
>>> classification("CC(C)C1OC2(C)OC(=N)C1(C#N)C(C#N)(C#N)C2C (stereo not given)")
"FALSE"
>>> classification("COC(=O)C(=O)C(C(=O)C(=O)Nc1ccc(C)cc1)c1nc2ccc(C(=O)c3ccccc3)cc2nc1O (stereo not given)")
"FALSE"
>>> classification("COC(=O)C(CC(=O)c1cc2c(cc1I)OCO2)Cc1cc(OC)c(OC)c(OC)c1I (stereo not given)")
"FALSE"
>>> classification("Cn1c2c(c3c(=O)[nH]ncc31)CCCc1ccccc1-2")
"FALSE"
>>> classification("COC(=O)[C@]1(c2ccc(N(C)C)cc2OC)C[C@@H]2CCCN(CCc3c1[nH]c1ccccc31)C2")
"FALSE"
>>> classification("CC1(C)C2CC3C4CC5(Nc6ccccc6C5N41)[C@]3(C)CC2=O (stereo not given in full)")
"FALSE"
>>> classification("N/C(=N/O)c1cn(C2OC(CO)C(O)C2O)c2ncnc(NO)c12 (stereo not given)")
"TRUE"

###

# Tested on: SNB-19
# measurement notes: NCI tumour cell line growth inhibition, 48 h
Activity calls are given as the source filed them. Rule as the data show it: active = GI50 up to about 1.1 µM and inactive = higher.
Outcomes: true = active, false = inactive

>>> classification("CC1C=CN(N(C)C)C2=C1C(=O)c1cnccc1C2=O (centres undefined)")
"true"
>>> classification("CCOP(=O)(OCC)C(C)(CC)N/C(N)=N/C#N (centres undefined)")
"false"
>>> classification("O=C(Nc1ccccc1)N1CC(CN2CCN(c3ccccc3)CC2)OC1=O (centres undefined)")
"false"
>>> classification("CCOP(=O)(C/C=C/Cn1nc(Br)c(=O)[nH]c1=O)OCC")
"false"
>>> classification("CCN(CC)C(=O)N[C@@H](CC(C)C)C(=O)NC")
"false"
>>> classification("COC(=O)[C@]1(C)CCC[C@]2(C)C3CC4OOC3(C=C4C(C)C)CCC21 (some centres undefined)")
"false"
>>> classification("CCCC(C(=O)Nc1cccc2nc[nH]c12)C(=O)OCC (centres undefined)")
"false"
>>> classification("NS(=O)(=O)c1ccc(NC(=O)C2C(=O)C(=O)N(c3ccc(S(N)(=O)=O)cc3)C2=O)cc1 (centres undefined)")
"false"
>>> classification("O=C(O)CSC1=NCCN1")
"false"
>>> classification("CN1CCCN(C)CCCN(C)CCCN(C)CCC1")
"false"
>>> classification("COC(=O)CCCC1(CCCC(=O)OC)CCCCCCCCC(CCCC(=O)OC)(CCCC(=O)OC)C(=O)C1=O")
"false"
>>> classification("COC(=O)C(=O)C(C(=O)C(=O)Nc1ccc(C)cc1)c1nc2ccc(C(=O)c3ccccc3)cc2nc1O (centres undefined)")
"false"
>>> classification("c1ccc2c(c1)Nc1nc3nonc3nc1N2")
"false"
>>> classification("CN1C(=O)C(O)CC1c1ccccc1F (centres undefined)")
"false"
>>> classification("COc1ccc2ccccc2c1C1NC(=O)c2ccccc2N1 (centres undefined)")
"false"
>>> classification("O=C1c2ccccc2C2(O)NC(=S)N(c3ccccc3)C12O (centres undefined)")
"false"
>>> classification("O=C1NC(=O)C(c2c[nH]c3cc(Br)ccc23)=C1c1cn(C(c2ccccc2)(c2ccccc2)c2ccccc2)cn1")
"false"
>>> classification("CCOc1ccccc1NC(=O)CCc1nnc(S)[nH]1")
"false"
>>> classification("COC(=O)c1ccccc1CC1Cc2cccc(C)c2C1=O (centres undefined)")
"false"
>>> classification("O=C1NC(Cc2ccc(O)cc2)C(=O)NC1Cc1ccc(O)cc1 (centres undefined)")
"false"
>>> classification("CC12c3ccccc3C(OC=O)(c3ccccc31)C1(C)c3ccccc3C2(OC=O)c2ccccc21")
"false"
>>> classification("CCCCCCCCOCC(O)COC(=O)CCCCCCC (centres undefined)")
"false"
>>> classification("Cn1c(NNc2ccccc2)cc(=O)[nH]c1=O")
"false"
>>> classification("Nc1ccc(-c2nc3ccccc3s2)cc1")
"false"

###

# Tested on: CCRF-CEM
# measurement notes: NCI tumour cell line growth inhibition, 48 h
The source made the active and inactive calls. Rule as the data show it: active = GI50 up to about 1.1 µM and inactive = higher.
Outcomes: t for active, f for inactive

>>> classification("O=C(NN1C(=O)/C(=C/c2ccc(Cl)cc2)N=C1c1ccccc1)c1c(Cl)c(Cl)c(Cl)c(Cl)c1-c1nc2ccccc2[nH]1")
"f"
>>> classification("Cc1ccc(C(=O)OCC(C)C)cc1/N=N/N(C)C")
"f"
>>> classification("O=c1c2cccnc2[nH]c2ccc3cn[nH]c3c12")
"f"
>>> classification("CC(C)(C)C(=O)C(C(c1ccccc1)N1CCOCC1)N1CCOCC1 (stereo not given)")
"f"
>>> classification("CN(C)C(=O)OC(Cn1cncn1)(Cn1cncn1)c1ccc(Cl)cc1Cl")
"f"
>>> classification("COC(=O)/C=C\\C(C#N)(C#N)/N=C/c1ccc(Br)s1")
"t"
>>> classification("S=c1[nH]nc(Cn2c3ccc(Br)cc3c3nc4ccccc4nc32)n1C1CCCCC1")
"f"
>>> classification("Cc1ccc2nc(-c3ccc(-c4nc5ccc(C)cc5o4)c(O)c3)oc2c1")
"f"
>>> classification("CCC(C)NC1=C(NC(C)=O)C(=O)c2ccccc2C1=O (stereo not given)")
"f"
>>> classification("CCOP(=O)(C/C=C/Cn1nc(Br)c(=O)[nH]c1=O)OCC")
"f"

###

# Tested on: SF-539
# measurement notes: NCI tumour cell line growth inhibition, 48 h
Active and inactive are the calls of the source. Cut-off read from the data, not from the text of the source: active = GI50 up to about 1.1 µM and inactive = higher.
Outcomes: active, inactive

>>> classification("c1ccc([P+](CCC[P+](c2ccccc2)(c2ccccc2)c2ccccc2)(c2ccccc2)c2ccccc2)cc1")
"inactive"
>>> classification("CC1=NN(C(=O)c2ccccc2O)C(=O)/C1=C/c1ccc([N+](=O)[O-])cc1")
"active"
>>> classification("Cc1ccc(/C(Cl)=C/C=C(C#N)C#N)cc1")
"inactive"
>>> classification("NS(=O)(=O)c1ccc(/N=N/c2cc3ccccc3c(C(=O)O)c2O)cc1")
"inactive"
>>> classification("COC(=O)c1ccc(NCc2cc(O)ccc2O)cc1O")
"inactive"
>>> classification("O=C(c1ccccc1O)c1cc(-c2ncc3c(=O)c4ccccc4oc3n2)c(-c2ccccc2O)[nH]c1=O")
"inactive"
>>> classification("CCCC1NC(=O)C(CC(C)C)NC(=O)c2cccc(n2)C(=O)NC(CC(C)C)C(=O)NC(CCC)C(=O)NC(C(=O)OC)CCCCNC1=O (stereo not given)")
"inactive"
>>> classification("Cc1ccnc(NC(=S)Nc2ccccc2Cl)c1")
"inactive"
>>> classification("CC1CN(c2ccc(Cl)cc2)CC(C)(C)OC(=O)O1 (stereo not given)")
"inactive"
>>> classification("NC(=O)C(c1ccccc1)N1OC2C(=O)N(c3cccc4ccccc34)C(=O)C2C1c1c2ccccc2c(Cl)c2ccccc12 (stereo not given)")
"inactive"

###

Reported GI50 values for the following molecules.
# Tested on: OVCAR-8
# measurement notes: NCI tumour cell line growth inhibition, 48 h
Calls of active or inactive are those of the source. No stated cut-off is given here; in the data, active = GI50 up to about 1.1 µM and inactive = higher.
property name: GI50

>>> observed_value("CC1CN(c2ccc(Cl)cc2)CC(C)(C)OC(=O)O1 (stereo not drawn)")
"> 100 µM (inactive)"
>>> observed_value("COc1ccc(-c2c(C(C)=O)c(C)n(C3OC(CO)C(O)C(O)C3O)c(=S)c2C#N)cc1 (stereo not drawn)")
"58.2 µM (inactive)"
>>> observed_value("CC(O)=NC(Cc1ccc2ccccc2c1)C(O)=NC(Cc1ccc(Cl)cc1)C(O)=NC(Cc1c[nH]c2ccccc12)C(O)=NC(CO)C(O)=NC(Cc1ccc(O)cc1)C(O)=NC(CCCN=C(N)N)C(O)=NC(CC(C)C)C(O)=NC(CCCN=C(N)N)C(=O)N1CCCC1C(O)=NC(C)C(=N)O (stereo not drawn)")
"27.1 µM (inactive)"

###

# System: HCC 2998
# measurement notes: NCI tumour cell line growth inhibition, 48 h
Active and inactive are the calls of the source. No stated cut-off is given here; in the data, active = GI50 up to about 1.1 µM and inactive = higher.
Reported GI50 values for the following compounds.
property name: GI50

>>> observed_value("CCO/C(CCn1[nH]c(=O)c(Cl)c(Cl)c1=O)=N\\NC(=O)C(=O)NN")
"> 100 µM (inactive)"
>>> observed_value("O=c1cc(N2CCOCC2)[nH]c(=O)n1-c1ccc(F)cc1")
"> 100 µM (inactive)"
>>> observed_value("CCCCC1=NNC(=O)C1")
"> 100 µM (inactive)"
>>> observed_value("Cc1cc(S(=O)(=O)Nc2nc(N)n[nH]2)c(S)cc1Cl")
"> 10 µM (inactive)"
>>> observed_value("CCCC(C(=O)Nc1cccc2nc[nH]c12)C(=O)OCC (stereo unspecified)")
"> 100 µM (inactive)"
>>> observed_value("OC1c2ccccc2C2(O)C1C(c1ccccc1)C(c1ccccc1)C2(O)c1ccccc1 (stereo unspecified)")
"11.2 µM (inactive)"
>>> observed_value("Nc1ccc(-c2nc3ccccc3s2)cc1")
"59.7 µM (inactive)"
>>> observed_value("CCOC(=O)c1nc2ccc(C(F)(F)F)cc2nc1Oc1ccc(C(=O)OC)cc1")
"> 100 µM (inactive)"
>>> observed_value("CC(=O)c1ccc(OCC(O)CO)cc1 (stereo unspecified)")
"> 100 µM (inactive)"
>>> observed_value("COC(=O)c1ccccc1C1CN=NC12Cc1c(C)c3c(c(C)c1C2=O)CCC3 (stereo unspecified)")
"> 100 µM (inactive)"
>>> observed_value("COc1ccc2nc3cc(Cl)ccc3c(Sc3ccc([N+](=O)[O-])cc3)c2c1")
"> 10 µM (inactive)"
